Test: total protein half-life in vivo (active degradation + dilution); higher = more stable protein
Conditions: wild type E. coli NCM3722; growth: N-lim chemostat; doubling time 12 h
The label depends only on total protein half-life in vivo: Met if it is at least 6 h, Not met if it is smaller.

Completed entries (count: 4):
[[record]]
sequence_text = "MKQYLIAPSILSADFARLGEDTAKALAAGADVVHFDVMDNHYVPNLTIGPMVLKSLRNYGITAPIDVHLMVKPVDRIVPDFAAAGASIITFHPEASEHVDRTLQLIKENGCKAGLVFNPATPLSYLDYVMDKLDVILLMSVNPGFGGQSFIPQTLDKLREVRRRIDESGFDIRLEVDGGVKVNNIGEIAAAGADMFVAGSAIFDQPDYKKVIDEMRSELAKVSHE [P0AG07]"
class_label = "Met"

[[record]]
sequence_text = "MRTTIAVVLGAISLTSAFVFADKPDVARSANDEVSTLFFGHDDRVPVNDTTQSPWDAVGQLETASGNLCTATLIAPNLALTAGHCLLTPPKGKADKAVALRFVSNKGLWRYEIHDIEGRVDPTLGKRLKADGDGWIVPPAAAPWDFGLIVLRNPPSGITPLPLFEGDKAALTAALKAAGRKVTQAGYPEDHLDTLYSHQNCEVTGWAQTSVMSHQCDTLPGDSGSPLMLHTDDGWQLIGVQSSAPAAKDRWRADNRAISVTGFRDKLDQLSQK"
class_label = "Met"

[[record]]
sequence_text = "MTQPLFLIGPRGCGKTTVGMALADSLNRRFVDTDQWLQSQLNMTVAEIVEREEWAGFRARETAALEAVTAPSTVIATGGGIILTEFNRHFMQNNGIVVYLCAPVSVLVNRLQAAPEEDLRPTLTGKPLSEEVQEVLEERDALYREVAHIIIDATNEPSQVISEIRSALAQTINC [P0A6E1]"
class_label = "Not met"

[[record]]
sequence_text = "MPKLILASTSPWRRALLEKLQISFECAAPEVDETPRSDESPRQLVLRLAQEKAQSLASRYPDHLIIGSDQVCVLDGEITGKPLTEENARLQLRKASGNIVTFYTGLALFNSANGHLQTEVEPFDVHFRHLSEAEIDNYVRKEHPLHCAGSFKSEGFGITLFERLEGRDPNTLVGLPLIALCQMLRREGKNPLMG [P0A729]"
class_label = "Met"


[Q] Can MANPTVIKLQDGNVMPQLGLGVWQASNEEVITAIQKALEVGYRSIDTAAAYKNEEGVGKALKNASVNREELFITTKLWNDDHKRPREALLDSLKKLQLDYIDLYLMHWPVPAIDHYVEAWKGMIELQKEGLIKSIGVCNFQIHHLQRLIDETGVTPVINQIELHPLMQQRQLHAWNATHKIQTESWSPLAQGGKGVFDQKVIRDLADKYGKTPAQIVIRWHLDSGLVVIPKSVTPSRIAENFDVWDFRLDKDELGEIAKLDQGKRLGPDPDQFGG be said to have total protein half-life in vivo at or above 6 h?
[A] Met

[Q] Does MSEKYIVTWDMLQIHARKLASRLMPSEQWKGIIAVSRGGLVPGALLARELGIRHVDTVCISSYDHDNQRELKVLKRAEGDGEGFIVIDDLVDTGGTAVAIREMYPKAHFVTIFAKPAGRPLVDDYVVDIPQDTWIEQPWDMGVVFVPPISGR [P0A9M5] have a reported total protein half-life in vivo of at least 6 h?
[A] Met

[Q] Form field: total protein half-life in vivo at least 6 h? Entry: MNISDVAKITGLTSKAIRFYEEKGLVTPPMRSENGYRTYTQQHLNELTLLRQARQVGFNLEESGELVNLFNDPQRHSADVKRRTLEKVAEIERHIEELQSMRDQLLALANACPGDDSADCPIIENLSGCCHHRAG [P0A9G4]
[A] Not met

---

Assay: total protein half-life in vivo (active degradation + dilution); higher = more stable protein
Details: E. coli NCM3722 delta-hslV; growth: N-lim chemostat; doubling time 6 h
MEASURED METRIC: total protein half-life in vivo (h)
Form entry: value (h) — number only.

[[record]]
sequence_text = "MKPSSSNSRSKGHAKARRKTREELDQEARDRKRQKKRRGHAPGSRAAGGNTTSGSKGQNAPKDPRIGSKTPIPLGVTEKVTKQHKPKSEKPMLSPQAELELLETDERLDALLERLEAGETLSAEEQSWVDAKLDRIDELMQKLGLSYDDDEEEEEDEKQEDMMRLLRGN [P0A8H6]"
measured_value = 4.08


Let us move to another entry and its total protein half-life in vivo.
[Q] Dear colleague, please send me the reported total protein half-life in vivo for MNPIVINRLQRKLGYTFNHQELLQQALTHRSASSKHNERLEFLGDSILSYVIANALYHRFPRVDEGDMSRMRATLVRGNTLAELAREFELGECLRLGPGELKSGGFRRESILADTVEALIGGVFLDSDIQTVEKLILNWYQTRLDEISPGDKQKDPKTRLQEYLQGRHLPLPTYLVVQVRGEAHDQEFTIHCQVSGLSEPVVGTGSSRRKAEQAAAEQALKKLELE [P0A7Y0] when you can.
[A] 5.21

---

Experiment: total protein half-life in vivo (active degradation + dilution); higher = more stable protein
Conditions: wild type E. coli NCM3722; growth: P-lim chemostat; doubling time 12 h
MEASURED METRIC: total protein half-life in vivo

[[record]]
sequence_text = "MDMHSGTFNPQDFAWQGLTLTPAAAIHIRELVAKQPGMVGVRLGVKQTGCAGFGYVLDSVSEPDKDDLLFEHDGAKLFVPLQAMPFIDGTEVDFVREGLNQIFKFHNPKAQNECGCGESFGV"
measured_value = "4.79 h"


[Q] Give a short answer stating reported total protein half-life in vivo for MSHTIRDKQKLKARASKIQGQVVALKKMLDEPHECAAVLQQIAAIRGAVNGLMREVIKGHLTEHIVHQGDELKREEDLDVVLKVLDSYIK .
[A] 11.9 h

[Q] Give recorded total protein half-life in vivo. MLAKRIIPCLDVRDGQVVKGVQFRNHEIIGDIVPLAKRYAEEGADELVFYDITASSDGRVVDKSWVSRVAEVIDIPFCVAGGIKSLEDAAKILSFGADKISINSPALADPTLITRLADRFGVQCIVVGIDTWYDAETGKYHVNQYTGDESRTRVTQWETLDWVQEVQKRGAGEIVLNMMNQDGVRNGYDLEQLKKVREVCHVPLIASGGAGTMEHFLEAFRDADVDGALAASVFHKQIINIGELKAYLATQGVEIRIC
[A] 11.6 h

[Q] Please give the documented total protein half-life in vivo of MIEFVYPHTQLVAGVDEVGRGPLVGAVVTAAVILDPARPIAGLNDSKKLSEKRRLALYEEIKEKALSWSLGRAEPHEIDELNILHATMLAMQRAVAGLHIAPEYVLIDGNRCPKLPMPAMAVVKGDSRVPEISAASILAKVTRDAEMAALDIVFPQYGFAQHKGYPTAFHLEKLAEHGATEHHRRSFGPVKRALGLAS
[A] 2.12 h

---

Assay: total protein half-life in vivo (active degradation + dilution); higher = more stable protein
Details: wild type E. coli NCM3722; growth: N-lim chemostat; doubling time 12 h
Decide by total protein half-life in vivo: equal to or exceeding 7 h means True, less means False.

[[record]]
sequence_text = "MIIYLHGFDSNSPGNHEKVLQLQFIDPDVRLISYSTRHPKHDMQHLLKEVDKMLQLNVDERPLICGVGLGGYWAERIGFLCDIRQVIFNPNLFPYENMEGKIDRPEEYADIATKCVTNFREKNRDRCLVILSRNDEALNSQRTSEELHHYYEIVWDEEQTHKFKNISPHLQRIKAFKTLG [P0A8E1]"
class_label = "False"

[[record]]
sequence_text = "MAEAQNDPLLPGYSFNAHLVAGLTPIEANGYLDFFIDRPLGMKGYILNLTIRGQGVVKNQGREFVCRPGDILLFPPGEIHHYGRHPEAREWYHQWVYFRPRAYWHEWLNWPSIFANTGFFRPDEAHQPHFSDLFGQIINAGQGEGRYSELLAINLLEQLLLRRMEAINESLHPPMDNRVREACQYISDHLADSNFDIASVAQHVCLSPSRLSHLFRQQLGISVLSWREDQRISQAKLLLSTTRMPIATVGRNVGFDDQLYFSRVFKKCTGASPSEFRAGCEEKVNDVAVKLS [P0A9E0]"
class_label = "False"

[[record]]
sequence_text = "MPELPEVETSRRGIEPHLVGATILHAVVRNGRLRWPVSEEIYRLSDQPVLSVQRRAKYLLLELPEGWIIIHLGMSGSLRILPEELPPEKHDHVDLVMSNGKVLRYTDPRRFGAWLWTKELEGHNVLTHLGPEPLSDDFNGEYLHQKCAKKKTAIKPWLMDNKLVVGVGNIYASESLFAAGIHPDRLASSLSLAECELLARVIKAVLLRSIEQGGTTLKDFLQSDGKPGYFAQELQVYGRKGEPCRVCGTPIVATKHAQRATFYCRQCQK"
class_label = "True"


Note: attention shifts to another entry.
[Q] Is the recorded value of total protein half-life in vivo equal to or greater than 7 h for this sequence? MSDNIRVGLIGYGYASKTFHAPLIAGTPGQELAVISSSDETKVKADWPTVTVVSEPKHLFNDPNIDLIVIPTPNDTHFPLAKAALEAGKHVVVDKPFTVTLSQARELDALAKSLGRVLSVFHNRRWDSDFLTLKGLLAEGVLGEVAYFESHFDRFRPQVRDRWREQGGPGSGIWYDLAPHLLDQAITLFGLPVSMTVDLAQLRPGAQSTDYFHAILSYPQRRVILHGTMLAAAESARYIVHGSRGSYVKYGLDPQEERLKNGERLPQEDWGYDMRDGVLTRVEGEERVEETLLTVPGNYPAYYAAIRDALNGDGENPVPASQAIQVMELIELGIESAKHRATLCLA
[A] True
